- System: Plasmodium falciparum
- Protocol: GSK_TCMDC: Inhibition of Plasmodium falciparum Dd2 in whole red blood cells, using parasite LDH activity as an index of growth. Test compounds present at 2uM
- Format: functional

# Compound, Target, Inhibition, %
measured = [
    ("Cn1cc(C2CCN(CCCCNC(=O)c3sc(-c4ccc(C(F)(F)F)cc4)nc3CO)CC2)c2ccccc21", "Plasmodium falciparum", 15),
    ("Cl.N=C(NCCCc1ccccc1)c1cccc(C(=N)NCCCc2ccccc2)n1", "Plasmodium falciparum", 0),
    ("COc1ccc(CN(C)CCOc2ccc(NC(=O)c3cccc4c(=O)cc(-c5ccccc5)[nH]c34)cc2)cc1OC", "Plasmodium falciparum", 44),
    ("COc1ccc(-c2nonc2NC(=O)c2ccc(C(C)(C)C)cc2)cc1OC", "Plasmodium falciparum", 73),
    ("CN1CCCC(CN2CCN(Cc3ccc(-c4cccc(-c5nc6ccccc6[nH]5)c4)cc3)CC2)C1.O=C(O)C(F)(F)F (stereo unspecified)", "Plasmodium falciparum", 100),
    ("O=C(Nc1cccc(-c2csc(-c3nc4ccccc4[nH]3)c2)c1)c1ccncc1", "Plasmodium falciparum", 61),
    ("NC1=NC(c2ccccc2)(c2ccccc2)C(=O)N1CCCCc1ccccc1.O=CO", "Plasmodium falciparum", 81),
    ("Cc1c(CCc2cccc(F)c2F)[nH]c2ccccc2c1=O", "Plasmodium falciparum", 90),
    ("Cl.c1ccc(Cn2nnnc2-c2cccc(Nc3ccnc4cc(-c5nccs5)ccc34)c2)cc1", "Plasmodium falciparum", 46),
    ("COc1cc(Cc2cnc(N)nc2N)cc(OCCCC#N)c1OC", "Plasmodium falciparum", 0),
    ("Nc1nc(N)c2nc(C3CC=CCC3)c(N)nc2n1 (stereo unspecified)", "Plasmodium falciparum", 0),
]

---

- Tested on: HepG2
- Protocol: GSK_TCMDC: Percent inhibition of human HepG2 cell line. Test compounds present at 10uM.
- Format: functional
Endpoint name: Inhibition

# Molecule, Recorded measurement
rows = [
    ("Nc1c2c(nc3ccc(C(=O)Nc4ccccc4)cc13)CCCC2", "20%"),
    ("Cc1cc(NC(=O)Nc2ccc(Oc3ccccc3)cc2)c2ccccc2n1", "2%"),
    ("CCOc1cc2ncnc(Nc3cc(Cl)c(Cl)c(Cl)c3)c2cc1OCC.Cl", "11%"),
    ("NCc1ccc(CNCc2cccc(-c3cccc(-c4nc5ccccc5[nH]4)c3)c2)cc1.O=C(O)C(F)(F)F", "7%"),
    ("Nc1c(Cl)cc(C(O)CNCCCCCOCCc2ccccc2)cc1C(F)(F)F (stereo not given)", "3%"),
    ("NCc1cccc(-c2ccccc2CNC2CCN(Cc3ccccc3)CC2)c1.O=C(O)C(F)(F)F", "0%"),
    ("CNCCNc1nccc(N2CCc3ncnc(Nc4ccc(OCc5cccc(F)c5)c(Cl)c4)c3C2)n1", "30%"),
    ("CCCCCC(C)N/C(=N/c1ccccc1Br)Nc1ccc([N+](=O)[O-])cc1O (stereo not given)", "0%"),
    ("CN(C)CCNC(=O)NC1CN(c2ncnc3cc(-c4ccccc4)sc23)C1.O=C(O)C(F)(F)F", "7%"),
    ("Clc1ccc(CNc2ccnc(NCc3ccc4c(c3)OCCCO4)n2)c(Cl)c1", "50%"),
    ("COc1ccc2[nH]cc(C3CCN(CCCCCNC(=O)c4ccc(-c5ccccc5)cc4)CC3)c2c1", "50%"),
    ("CN1CCN(c2ccc(-c3cc(-c4cc(F)c(F)c(F)c4)cnc3N)cc2)CC1", "58%"),
    ("Cc1nn(CC(C)C)c2sc(C(=O)Nc3nc(-c4ccccn4)cs3)cc12", "29%"),
    ("O=C(Nc1cccc(-c2nc3ccccc3s2)c1)c1ccccc1[N+](=O)[O-]", "0%"),
    ("CCc1nonc1NC(=O)c1oc2c(C)c(C)ccc2c1C", "1%"),
    ("CCCN(Cc1nnc(-c2cccs2)o1)C(=O)CSc1nnnn1-c1cc(C)cc(C)c1", "2%"),
    ("Clc1ccccc1CNc1noc(-c2sccc2Br)n1", "0%"),
    ("COc1ccc(OCC(O)CN(Cc2ccccc2OC)C(=O)Nc2ccc(Br)cc2)cc1 (stereo not given)", "8%"),
    ("Nc1nccc2ccc(-c3ccnc(NCc4cccnc4)n3)cc12", "11%"),
    ("O=C(CCn1cncn1)N1CCCC(c2[nH]c3ccccc3c2-c2ccncc2)C1 (stereo not given)", "1%"),
    ("Cc1cccc2nc(-c3ccc(-c4cccc(NC(=O)CCc5c[nH]cn5)c4)cc3)[nH]c12", "13%"),
    ("COC(=O)[C@@H](NC(=O)[C@@H](Nc1ccc(C#N)c2ccccc12)C(C)(C)C)c1ccc(O)cc1", "0%"),
    ("O=C(CCC1CCCC1)N(Cc1ccc(-c2ccc(CNCCc3ccccc3)cc2)cc1)C1CCCNC1.O=C(O)C(F)(F)F (stereo not given)", "99%"),
    ("COc1ccc(CNCc2ccc(F)cc2)cc1-c1ccc(OC)c(S(=O)(=O)NCCN2CCCC2)c1.O=C(O)C(F)(F)F", "24%"),
    ("O=C(Nc1cccc(OCCN2CCCC2)c1)Nc1ccc(Cl)c(Cl)c1.O=C(O)C(F)(F)F", "3%"),
    ("Cc1noc(NC(=O)c2sc3ccccc3c2O)c1C", "0%"),
    ("COc1ccc2nc3cc(Cl)ccc3c(NCCc3ccccc3)c2c1.Cl", "0%"),
    ("Cc1cccc2nc(C3CCN(CC4CCN(C(=O)/C=C/c5ccc(Cl)c(Cl)c5)CC4)CC3)[nH]c12", "46%"),
    ("O=C(Nc1ccc(OC2CCN(Cc3ccc(F)cc3)C2)c(Cl)c1)c1ccccc1.O=C(O)C(F)(F)F (stereo not given)", "11%"),
    ("CC1(C)CCCC(=Cc2ccc(Br)cc2)C1(O)Cn1ccnc1 (stereo not given)", "7%"),
]
